The reported measurements were obtained from patent US4493833A.

test system: Proteus mirabilis 525
Mark rule met for MIC under 0.1 µg/mL, rule not met if at or over.

INSERT INTO measurements (molecule, system_name, assigned_category) VALUES
  ('CO/N=C(\C(=O)NC1C(=O)N2C(C(=O)O)=C(COC(C)=O)CSC12)c1csc(N)n1 (centres unmarked) [(8)]', 'Proteus mirabilis 525', 'rule met'),
  ('CO/N=C(\C(=O)NC1C(=O)N2C(C(=O)O)=C(COC(N)=O)CSC12)c1csc(N)n1 (centres unmarked) [(13)]', 'Proteus mirabilis 525', 'rule met'),
  ('CO/N=C(\C(=O)NC1C(=O)N2C(C(=O)O)=C(CSc3nnc(C)s3)CSC12)c1csc(N)n1 (centres unmarked) [(16)]', 'Proteus mirabilis 525', 'rule not met'),
  ('CO/N=C(\C(=O)NC1C(=O)N2C(C(=O)O)=C(CSc3nncs3)CSC12)c1csc(NC=O)n1 (centres unmarked) [(10)]', 'Proteus mirabilis 525', 'rule not met'),
  ('CO/N=C(\C(=O)NC1C(=O)N2C(C(=O)O)=C(CSc3nncn3C)CSC12)c1csc(N)n1 (centres unmarked) [(17)]', 'Proteus mirabilis 525', 'rule not met'),
  ('CO/N=C(\C(=O)NC1C(=O)N2C(C(=O)O)=C(COC(N)=O)CSC12)c1csc(NC(=O)C(F)(F)F)n1 (centres unmarked) [(18)]', 'Proteus mirabilis 525', 'rule met');

For the next question, use this molecule.
Qu. Take the molecule CO/N=C(/C(=O)NC1C(=O)N2C(C(=O)O)=C(CSc3nncs3)CSC12)c1csc(NC=O)n1 (centres unmarked) [(11)] and say whether its MIC is less than 0.1 µg/mL.
Ans. rule not met
